TARGET DESC: mAChR rM4 (Rattus norvegicus, UniProt P08485)
Construct: expressed in transfected cells
ASSAY COMMENT: mAChR rM4 cell-based functional assay (calcium mobilization, potentiation of EC20 acetylcholine response)
TEST CONTEXT: rM4-transfected CHO-K1 cells, positive allosteric modulation of EC20 ACh response; read-out: EC50
MEASURE NAME: log10 EC50 (log10 of the value in nM)
Give log10 of EC50, with EC50 taken in nM.

// below: answered compounds
* Cc1nnc2sc3c(NC4CCOC4)nn(C)c3c2c1C (stereo not drawn) | 2.60
* Cc1nnc2sc3c(NC4CCN(C(=O)OC(C)(C)C)CC4)nn(C)c3c2c1C | 2.32
* CC(=O)N1CCC(Nc2nn(C)c3c2sc2nnc(C)c(C)c23)CC1 | 3.26
* Cc1nnc2sc3c(NC4CCNCC4)nn(C)c3c2c1C | 3.72

Let us move to another entry and its log10 EC50.
Request: I have this compound here, CC(=O)N1CCC(CNc2nn(C)c3c2sc2nnc(C)c(C)c23)CC1 , and I need its recorded log10 EC50.
Result: 3.26

###

TARGET DESC: mAChR rM4 (Rattus norvegicus)
Construct: expressed in transfected cells
Sequence (P08485 1-478): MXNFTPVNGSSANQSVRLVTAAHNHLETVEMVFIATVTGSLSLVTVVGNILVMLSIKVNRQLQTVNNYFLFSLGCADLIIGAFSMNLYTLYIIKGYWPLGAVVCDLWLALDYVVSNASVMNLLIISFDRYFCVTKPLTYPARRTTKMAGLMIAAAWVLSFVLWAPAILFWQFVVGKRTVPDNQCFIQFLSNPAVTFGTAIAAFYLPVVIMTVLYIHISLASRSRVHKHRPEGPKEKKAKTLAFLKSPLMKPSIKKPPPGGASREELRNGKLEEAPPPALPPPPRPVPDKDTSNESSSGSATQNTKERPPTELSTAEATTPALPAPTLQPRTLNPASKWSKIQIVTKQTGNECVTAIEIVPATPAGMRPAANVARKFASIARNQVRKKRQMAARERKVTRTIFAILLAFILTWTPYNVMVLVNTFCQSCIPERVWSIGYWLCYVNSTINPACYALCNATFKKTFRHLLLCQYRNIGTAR
ASSAY COMMENT: mAChR rM4 cell-based functional assay (calcium mobilization, potentiation of EC20 acetylcholine response)
TEST CONTEXT: rM4-transfected CHO-K1 cells, positive allosteric modulation of EC20 ACh response; read-out: pEC50 (converted)
MEASURE NAME: EC50

Request: I have this compound here, Cc1nnc2sc3c(NCc4ccoc4)nn(C)c3c2c1C , and I need its recorded EC50.
Result: 0.0389 µM

Request: I have this compound here, Cc1nnc2sc3c(NCc4ccc(F)c(S(C)(=O)=O)c4)nn(C)c3c2c1C , and I need its recorded EC50.
Result: 0.0141 µM

###

TARGET DESC: mAChR rM4 (Rattus norvegicus, UniProt P08485)
Construct: expressed in transfected cells
Sequence (P08485 1-478): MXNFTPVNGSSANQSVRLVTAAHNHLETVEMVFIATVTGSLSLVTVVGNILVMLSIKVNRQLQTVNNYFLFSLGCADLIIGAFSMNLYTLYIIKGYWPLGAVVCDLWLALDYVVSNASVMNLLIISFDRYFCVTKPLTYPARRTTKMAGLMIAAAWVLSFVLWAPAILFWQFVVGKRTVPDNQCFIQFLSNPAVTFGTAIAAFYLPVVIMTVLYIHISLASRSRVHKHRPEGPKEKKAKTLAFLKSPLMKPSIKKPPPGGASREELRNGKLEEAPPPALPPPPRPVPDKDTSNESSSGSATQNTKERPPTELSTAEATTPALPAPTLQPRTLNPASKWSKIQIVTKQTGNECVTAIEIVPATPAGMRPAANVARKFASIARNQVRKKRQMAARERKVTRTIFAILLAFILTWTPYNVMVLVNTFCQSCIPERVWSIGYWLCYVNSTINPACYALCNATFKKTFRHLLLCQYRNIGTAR
ASSAY COMMENT: mAChR rM4 cell-based functional assay (calcium mobilization, potentiation of EC20 acetylcholine response)
TEST CONTEXT: rM4-transfected CHO-K1 cells, positive allosteric modulation of EC20 ACh response; read-out: EC50
Description: Chinese hamster ovary (CHO-K1) cells stably expressing rat (r)M1 were purchased from the American Type Culture Collection and cultured according to their indicated protocol. […] Calcium flux was measured using the Functional Drug Screening System (FDSS) 6000 (Hamamatsu Corporation, Tokyo, Japan) as an increase in the fluorescent static ratio. […] Agonist activity was analyzed as a concentration-dependent increase in calcium mobilization upon compound addition. […]
MEASURE NAME: EC50 (nM)
Number only, in nM; omit the unit.

// below: answered molecules
• Cc1nnc2sc3c(NCc4ccc(S(C)(=O)=O)cc4)nn(C)c3c2c1C = 130
• Cc1nnc2sc3c(NCC4CC4)nn(C)c3c2c1C = 340
• Cc1nnc2sc3c(NCC4CCN(S(C)(=O)=O)CC4)nn(C)c3c2c1C = 2500

Request: Item Cc1nnc2sc3c(NC4CN(S(C)(=O)=O)C4)nn(C)c3c2c1C with mAChR rM4 (Rattus norvegicus, UniProt P08485) - EC50?
Result: 63

Request: Item Cc1nnc2sc3c(NCc4ccco4)nn(C)c3c2c1C with mAChR rM4 (Rattus norvegicus, UniProt P08485) - EC50?
Result: 180
